# PROTOCOL NOTES: Tanguay_ZF_120hpf_AXIS_legacy: (Legacy) Oregon State University Tanguay Lab 120 Hour Post-fertilization zebrafish Assay for Body Axis Malformation (AID 2283635)
Results filed as inconclusive are left out. The source made the active and inactive calls. Rule for the calls: active = hit-call score of the fitted dose curve at least 0.9, where 1 is the maximum; inconclusive = response in the unintended direction; inactive = score below 0.9.
Classes used: active, inactive

- LINE NOTATION: "CCCCCCCCCCCCCCCC"
  CLASS ASSIGNMENT: "inactive"
- LINE NOTATION: "O=C(N[C@@H](Cc1ccccc1)[C@@H](O)C(=O)N1C[C@@H](O)[C@@H](O)C1)c1cc2cc(Cl)ccc2[nH]1"
  CLASS ASSIGNMENT: "inactive"
- LINE NOTATION: "C1CCC(SSC2CCCCC2)CC1"
  CLASS ASSIGNMENT: "inactive"
- LINE NOTATION: "CCCCCCCCCCCCCCCCCC(=O)O"
  CLASS ASSIGNMENT: "inactive"
- LINE NOTATION: "COc1ccc(S(=O)(=O)N2C(=O)[C@@](c3ccccc3OC)(N3C[C@H](O)C[C@H]3C(=O)N(C)C)c3cc(Cl)ccc32)c(OC)c1"
  CLASS ASSIGNMENT: "inactive"
- LINE NOTATION: "Cc1cccc(C)c1O"
  CLASS ASSIGNMENT: "inactive"
- LINE NOTATION: "COc1cc(C=O)ccc1O"
  CLASS ASSIGNMENT: "active"
- LINE NOTATION: "NCCO"
  CLASS ASSIGNMENT: "inactive"
- LINE NOTATION: "CC=Cc1ccc(O)c(OC)c1"
  CLASS ASSIGNMENT: "inactive"
- LINE NOTATION: "CCCc1cc(=O)[nH]c(=S)[nH]1"
  CLASS ASSIGNMENT: "inactive"
- LINE NOTATION: "Cc1ccc(N(C)C)cc1"
  CLASS ASSIGNMENT: "inactive"
- LINE NOTATION: "O=c1c(O)c(-c2ccc(O)c(O)c2)oc2cc(O)cc(O)c12"
  CLASS ASSIGNMENT: "inactive"
- LINE NOTATION: "Cc1ccc2ncccc2c1"
  CLASS ASSIGNMENT: "inactive"

###

# Read-out: Cellular tumor antigen p53 (Homo sapiens) (UniProt P04637)
# Sequence (P04637 whole entry, looked up): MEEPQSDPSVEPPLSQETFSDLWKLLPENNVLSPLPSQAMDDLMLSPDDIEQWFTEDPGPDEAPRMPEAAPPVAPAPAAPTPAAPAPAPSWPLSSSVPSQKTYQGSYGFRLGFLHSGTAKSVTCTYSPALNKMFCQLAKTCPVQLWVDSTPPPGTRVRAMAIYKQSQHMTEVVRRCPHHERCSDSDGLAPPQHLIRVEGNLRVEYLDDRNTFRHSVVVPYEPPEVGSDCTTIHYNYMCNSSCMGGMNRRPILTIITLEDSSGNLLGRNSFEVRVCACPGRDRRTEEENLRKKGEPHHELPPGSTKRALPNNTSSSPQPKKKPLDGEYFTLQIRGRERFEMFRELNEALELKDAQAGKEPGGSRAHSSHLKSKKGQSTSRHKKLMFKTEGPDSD
# PROTOCOL NOTES: LTEA_HepaRG_TP53: Life Technologies and Expression Analysis (LTEA) Assay for Tumor Protein P53 (TP53) using HepaRG (AID 2283537)
# DETAILS: mRNA level, 48 h; actives raise or lower the signal
Calls of active or inactive are those of the source. How the source made its calls: active means hit-call score of the fitted dose curve at least 0.9, where 1 is the maximum; inactive means score below 0.9.

- MOLECULE: "Nc1ccccc1N"
  AC50: "50 µM (active)"
- MOLECULE: "C1CCC(SSC2CCCCC2)CC1"
  AC50: "inactive"
- MOLECULE: "NCCO"
  AC50: "inactive"
- MOLECULE: "Clc1cc(Cl)c(Cl)cc1Cl"
  AC50: "inactive"
- MOLECULE: "C[Si]1(C)O[Si](C)(C)O[Si](C)(C)O[Si](C)(C)O1"
  AC50: "inactive"
- MOLECULE: "CN[C@H]1CC[C@@H](c2ccc(Cl)c(Cl)c2)c2ccc(S(N)(=O)=O)cc21"
  AC50: "87.6 µM (active)"
- MOLECULE: "Cc1ccc(C)c(O)c1C"
  AC50: "inactive"
- MOLECULE: "O=[N+]([O-])C(CO)(CO)CO"
  AC50: "inactive"
- MOLECULE: "Cc1oc(-c2ccccc2)nc1CCOc1cccc2c1ccn2CCC(=O)O"
  AC50: "80.1 µM (active)"
- MOLECULE: "CC(C)(C)c1cc(O)c(C(C)(C)C)cc1O"
  AC50: "86.7 µM (active)"
- MOLECULE: "CCCc1cc(=O)[nH]c(=S)[nH]1"
  AC50: "inactive"
- MOLECULE: "Nc1ccc(S(=O)(=O)c2ccc(N)cc2)cc1"
  AC50: "inactive"
- MOLECULE: "Cc1cccc(C)c1O"
  AC50: "inactive"
- MOLECULE: "CCCCCCC(=O)OCC"
  AC50: "inactive"
- MOLECULE: "c1cc(-c2ccncc2)ccn1"
  AC50: "inactive"
- MOLECULE: "Cc1cc(=O)[nH]c(=S)[nH]1"
  AC50: "inactive"
- MOLECULE: "CNCc1cc(F)ccc1Oc1ccc(Cl)c(Cl)c1"
  AC50: "inactive"
- MOLECULE: "CCCCCCCCCCCC(=O)OC"
  AC50: "inactive"
- MOLECULE: "OC[C@@H](O)[C@@H](O)[C@H](O)[C@H](O)CO"
  AC50: "inactive"
- MOLECULE: "Cc1ccc2ncccc2c1"
  AC50: "inactive"
- MOLECULE: "CCc1c(C(=O)NN2CCCCC2)nn(-c2ccc(Cl)cc2Cl)c1-c1ccc(Br)cc1"
  AC50: "29.8 µM (active)"
- MOLECULE: "CC(CO)OC(C)CO (stereo not drawn) (tested in a mixture with another compound)"
  AC50: "inactive"
- MOLECULE: "CCNc1cccc(C)c1"
  AC50: "inactive"
- MOLECULE: "O=C(O)Cc1ccccc1Nc1c(Cl)cccc1Cl"
  AC50: "inactive"
- MOLECULE: "CCCCOC(=O)CCCCCCCCC(=O)OCCCC"
  AC50: "inactive"
- MOLECULE: "CC1(C)CC(N=C=O)CC(C)(CN=C=O)C1 (stereo not drawn)"
  AC50: "inactive"
- MOLECULE: "CC=Cc1ccc(O)c(OC)c1"
  AC50: "inactive"
- MOLECULE: "COc1ccc(S(=O)(=O)N2C(=O)[C@@](c3ccccc3OC)(N3C[C@H](O)C[C@H]3C(=O)N(C)C)c3cc(Cl)ccc32)c(OC)c1"
  AC50: "22.7 µM (active)"

###

# Read-out: Interleukin-8 (IL8), CXCL8 (gene 3576)
# PROTOCOL NOTES: BSK_CASM3C_IL8: BioMAP Diversity Plus: CASM3C Assay for Interleukin-8 (IL8) Biomarker Activity (AID 2283042);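 note: IL-8 protein level quantified by ELISA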
# DETAILS: primary human coronary artery smooth muscle cells; actives raise or lower the signal
Active and inactive are the calls of the source. The calls were made as follows: active = hit-call score of the fitted dose curve at least 0.9, where 1 is the maximum; inactive = score below 0.9.
Possible outcomes: active, inactive

- LINE NOTATION: "O=C(N[C@@H](Cc1ccccc1)[C@@H](O)C(=O)N1C[C@@H](O)[C@@H](O)C1)c1cc2cc(Cl)ccc2[nH]1"
  CLASS ASSIGNMENT: "inactive"
- LINE NOTATION: "C=CCc1ccc(O)c(OC)c1"
  CLASS ASSIGNMENT: "inactive"
- LINE NOTATION: "Cc1cccc(C)c1O"
  CLASS ASSIGNMENT: "inactive"
- LINE NOTATION: "CCCCCCCCCCCC(=O)OC"
  CLASS ASSIGNMENT: "inactive"
- LINE NOTATION: "Cc1oc(-c2ccccc2)nc1CCOc1cccc2c1ccn2CCC(=O)O"
  CLASS ASSIGNMENT: "inactive"
- LINE NOTATION: "O=C(O)CCCCC(=O)O"
  CLASS ASSIGNMENT: "inactive"
- LINE NOTATION: "CN[C@H]1CC[C@@H](c2ccc(Cl)c(Cl)c2)c2ccc(S(N)(=O)=O)cc21"
  CLASS ASSIGNMENT: "active"
- LINE NOTATION: "C=CCOC(=O)c1ccccc1C(=O)OCC=C"
  CLASS ASSIGNMENT: "inactive"
- LINE NOTATION: "CNC(=O)[C@H]1O[C@@H](n2cnc3c(NCc4cc(Cl)ccc4OCc4cc(C)no4)ncnc32)[C@H](O)[C@@H]1N"
  CLASS ASSIGNMENT: "inactive"
- LINE NOTATION: "CC1(C)NC(=O)NC1=O"
  CLASS ASSIGNMENT: "inactive"
- LINE NOTATION: "Cc1ccc(C)c(O)c1C"
  CLASS ASSIGNMENT: "inactive"
- LINE NOTATION: "CC(=O)OCCOCCOCCOC(C)=O"
  CLASS ASSIGNMENT: "inactive"

###

# PROTOCOL NOTES: ATG_PXRE_CIS: Attagene CIS-FACTORIAL HepG2 Assay for human Pregnane X Receptor Element (PXRE) (AID 2282957)
# DETAILS: HepG2 Attagene CIS-FACTORIAL PXRE reporter, mRNA; actives raise or lower the signal
Calls of active or inactive are those of the source. The calls were made as follows: active = hit-call score of the fitted dose curve at least 0.9, where 1 is the maximum; inactive = score below 0.9.
Labels: 1.0 for active, 0.0 for inactive

- COMPOUND: "CC(=O)Oc1ccccc1C(=O)O"
  CLASS ASSIGNMENT: 1.0
- COMPOUND: "CCCCCCCCCCCCCCCC"
  CLASS ASSIGNMENT: 1.0
- COMPOUND: "CN1CCCC1=O"
  CLASS ASSIGNMENT: 0.0
- COMPOUND: "Cc1nc(C)nc(N2C[C@@H](C)N(c3ccnc([C@@H](C)O)n3)[C@@H](C)C2)n1"
  CLASS ASSIGNMENT: 0.0
- COMPOUND: "COc1ccc2c(c1)c(CC(=O)O)c(C)n2C(=O)c1ccc(Cl)cc1"
  CLASS ASSIGNMENT: 0.0
- COMPOUND: "CCCc1cc(=O)[nH]c(=S)[nH]1"
  CLASS ASSIGNMENT: 1.0
- COMPOUND: "Cc1ccc(C)c(O)c1C"
  CLASS ASSIGNMENT: 0.0
- COMPOUND: "COCCOC[C@H](CC1(C(=O)NC2CCC(C(=O)O)CC2)CCCC1)C(=O)Oc1ccc2c(c1)CCC2 (some centres not stated)"
  CLASS ASSIGNMENT: 1.0
- COMPOUND: "Cc1cc(NC(=O)C(=O)O)cc(C)c1Oc1ccc(O)c2c1CCC2"
  CLASS ASSIGNMENT: 0.0
- COMPOUND: "O=C(O)Cc1ccccc1Nc1c(Cl)cccc1Cl"
  CLASS ASSIGNMENT: 1.0
- COMPOUND: "O=C(N[C@@H](Cc1ccccc1)[C@@H](O)C(=O)N1C[C@@H](O)[C@@H](O)C1)c1cc2cc(Cl)ccc2[nH]1"
  CLASS ASSIGNMENT: 0.0
- COMPOUND: "CCCCCCCCCCCC(=O)OC"
  CLASS ASSIGNMENT: 0.0
- COMPOUND: "Cc1cc(=O)[nH]c(=S)[nH]1"
  CLASS ASSIGNMENT: 0.0
- COMPOUND: "CC(C)(C)c1cc(O)c(C(C)(C)C)cc1O"
  CLASS ASSIGNMENT: 0.0
- COMPOUND: "NC(=O)Cn1c(=O)cc(CCN2CCN(c3nccc4sccc34)CC2)c2ccc(F)cc21"
  CLASS ASSIGNMENT: 1.0
- COMPOUND: "Oc1ccc2ccccc2c1N=Nc1ccccc1"
  CLASS ASSIGNMENT: 1.0
- COMPOUND: "Clc1cc(Cl)c(Cl)cc1Cl"
  CLASS ASSIGNMENT: 0.0
- COMPOUND: "CC1=C(/C=C/C(C)=C/C=C/C(C)=C/CO)C(C)(C)CCC1"
  CLASS ASSIGNMENT: 1.0
- COMPOUND: "Nc1ccccc1N"
  CLASS ASSIGNMENT: 1.0
- COMPOUND: "CCCCCCOCCO"
  CLASS ASSIGNMENT: 0.0
- COMPOUND: "O=c1[nH]cc(F)c(=O)[nH]1"
  CLASS ASSIGNMENT: 0.0
- COMPOUND: "CNC(=O)[C@H]1O[C@@H](n2cnc3c(NCc4cc(Cl)ccc4OCc4cc(C)no4)ncnc32)[C@H](O)[C@@H]1N"
  CLASS ASSIGNMENT: 0.0
- COMPOUND: "Cc1ccccc1Cl"
  CLASS ASSIGNMENT: 0.0
- COMPOUND: "Cc1ccc(C(C)C)c(O)c1"
  CLASS ASSIGNMENT: 1.0
- COMPOUND: "CCCCCCCC=O"
  CLASS ASSIGNMENT: 0.0
- COMPOUND: "CCOC(=O)C(C)(C)Oc1ccc(Cl)cc1"
  CLASS ASSIGNMENT: 0.0
- COMPOUND: "CC=Cc1ccc(O)c(OC)c1"
  CLASS ASSIGNMENT: 1.0
